- TARGET_OF_ASSAY: T1, soluble murine CD25 (His-tagged recombinant mouse IL-2Rα/CD25, R&D Systems) (mouse, UniProt P01590 22-236, limits assumed)
- T1 construct: Bought reagent, described only as soluble and His-tagged; also called soluble CD25; mouse CD25
- T1 sequence (looked up): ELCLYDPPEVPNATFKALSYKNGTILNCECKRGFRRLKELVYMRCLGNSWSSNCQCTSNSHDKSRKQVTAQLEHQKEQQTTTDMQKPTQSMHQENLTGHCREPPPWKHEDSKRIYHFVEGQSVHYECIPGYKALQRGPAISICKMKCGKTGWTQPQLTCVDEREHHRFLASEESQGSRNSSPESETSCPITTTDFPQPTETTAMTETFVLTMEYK
- ASSAY_OVERVIEW: yeast surface display, titration with soluble murine CD25
MEASURED_METRIC: binding result

Here's what some known entries look like.
BINDER	binding result
mIL-2 QQ 6.2-10 (yeast-displayed) (ligand, also called reversion mutant) APTSSSTSSSTAEAQQQQQQQQQQQQHLEQLLMDLQELLSRMEDHRNLRLPRMLTFKFYLPEQATELEDLQCLEDELEPLRQVLDLTQSKSFQLEDAENFISNIRVTVVKLKGSDNTFECQFDDEPATVVDFLRRWIAFCQSIISTSPQ	binds
mIL-2 QQ 6.2-13 (yeast-displayed) (ligand, Selective-reversion mutant of a library 6.2 clone; also called reversion mutant) APTSSSTSSSTAEAQQQQQQQQQQQQHLEQLLMDLQELLSRMEDHRNLRLPRMLTFKFYLPEQATELKDLQCLEDELEPLRQVLDLTQSKSFQLEDAENFISNIRVTVVKLKGSDNTFECQFDDEPATVVDFLRRWIAFCQSIISTSPQ	binds
mIL-2 QQ 6.2-8 (yeast-displayed) (ligand, Selective-reversion mutant of a library 6.2 clone; also called reversion mutant) APTSSSTSSSTAEAQQQQQQQQHLEQLLMDLQELLSRMEDHRNLRLPRMLTFKFYLPKQATELEDLQCLEDELEPLRQVLDLTQSKSFQLEDAENFISNIRVTVVKLKGSDNTFECQFDDEPATVVDFLRRWIAFCQSIISTSPR	binds
mIL-2 QQ 6.2-11 (yeast-displayed) (ligand, Selective-reversion mutant of a library 6.2 clone; also called reversion mutant) APTSSSTSSSTAEAQQQQQQQQQHLEQLLMDLQELLSRMEDSRNLRLPRMLTFKFYLPEQATELKDLQCLEDELEPLRQVLDLTQSKSFQLEDAENFISNIRVTVVKLKGSDNTFECQFDDEPATVVDFLRRWIAFCQSIISTSPQ	binds

Recorded binding result (binder mIL-2 QQ 6.2-4 (yeast-displayed) (ligand, Selective-reversion mutant of a library 6.2 clone; also called reversion mutant) APTSSSTSSSTAEAQQQQQQQQQQQQHLEQLLMDLQELLSRMEDSRNLRLPRMLTFKFYLPKQATELEDLQCLEDELEPLRQVLDLTQSKSFQLEDAENFISNIRVTVVKLKGSDNTFECQFDDEPATVVGFLRRWIAFCQSIISTSPQ ): binds

Recorded values, source patent US20150132254A1.
